Data origin: patent US8222260B2

- Tested on: Human diploid fibroblasts HCA
- EXPERIMENTAL PROTOCOL: Anti-aging activity: senescence-associated beta-galactosidase in human fibroblasts
- Format: cell-based
- TEST CONTEXT: passage 25, cells expressing senescence-associated beta-galactosidase
Senescent Cells (%) HCA passage 25 overview
Numeric answer only, unit % assumed.

1) c1coc(CNc2ncnc3nc[nH]c23)c1 [Kinetin, 6-furfurylaminopurine, reference compound]    3
2) Nc1nc(Nc2ccc(O)cc2)c2[nH]cnc2n1 [2-amino-(4-hydroxyanilino)purine]    4
3) COc1cccc(Nc2nc(F)nc3nc[nH]c23)c1    3
4) Oc1ccc(Nc2nc(Cl)nc3nc[nH]c23)cc1 [Compound 10, 2-chloro-6-(4-hydroxyanilino)purine]    4
5) COc1cccc(Nc2nc(N)nc3nc[nH]c23)c1    4
6) COc1ccc(Nc2nc(Cl)nc3nc[nH]c23)cc1    4
7) Nc1nc(Nc2ccc(O)cc2)c2nc[nH]c2n1 [2-amino-(4-hydroanilino)purine]    3
8) Oc1ccc(Nc2nc(F)nc3nc[nH]c23)cc1 [2-fluoro-6-(4-hydroxyanilino)purine]    3

Measured Senescent Cells (%) HCA passage 25 of `COc1cc(Nc2nc(Cl)nc3nc[nH]c23)ccc1O` : 4

Measured Senescent Cells (%) HCA passage 25 of `COc1cccc(Nc2nc(Cl)nc3nc[nH]c23)c1` : 5

Measured Senescent Cells (%) HCA passage 25 of CSc1nc(Nc2ccc(O)cc2)c2[nH]cnc2n1 [2-methylthio-6-(4-hydroxyanilino)purine] : 4

---

- System: Human diploid fibroblasts HCA
- EXPERIMENTAL PROTOCOL: Anti-aging activity: senescence-associated beta-galactosidase in human fibroblasts
- Assay type: cell-based
- TEST CONTEXT: passage 80, cells expressing senescence-associated beta-galactosidase
Senescent Cells (%) HCA passage 80 overview
Numeric answer only, unit % assumed.

1. Oc1ccc(Nc2nc(F)nc3nc[nH]c23)cc1 [2-fluoro-6-(4-hydroxyanilino)purine]    18

Measured Senescent Cells (%) HCA passage 80 of Nc1nc(Nc2ccc(O)cc2)c2[nH]cnc2n1 [2-amino-(4-hydroxyanilino)purine] : 18

Measured Senescent Cells (%) HCA passage 80 of Oc1ccc(Nc2nc(Cl)nc3nc[nH]c23)cc1 [Compound 10, 2-chloro-6-(4-hydroxyanilino)purine] : 22

Measured Senescent Cells (%) HCA passage 80 of c1coc(CNc2ncnc3nc[nH]c23)c1 [Kinetin, 6-furfurylaminopurine, reference compound] : 38

---

- System: cytokinin-dependent tobacco callus Nicotiana tabacum L. cv. Wisconsin 38
- EXPERIMENTAL PROTOCOL: Tobacco callus biotest (plant cell division)
- Format: cell-based
- TEST CONTEXT: at the concentration with highest activity, relative to 10^−5 M kinetin
Activity (%) [10^−5 mol · l^−1 K = 100%] overview
Numeric answer only, unit % assumed.

Below: 7 molecules and their reported Activity (%) [10^−5 mol · l^−1 K = 100%].
1. Sc1nc(Nc2cccc(Cl)c2)c2nc[nH]c2n1 [Compound 80]    126
2. Sc1nc(Nc2ccc(Cl)cc2)c2nc[nH]c2n1 [Compound 81]    115.7
3. COc1cccc(Nc2nc(Cl)nc3nc[nH]c23)c1 [Compound 12, 2-Chloro-6-(3-methoxyanilino)purine]    122
4. COc1cccc(Nc2nc(S)nc3[nH]cnc23)c1 [Compound 88]    103.4
5. COc1cccc(Nc2nc(F)nc3nc[nH]c23)c1 [Compound 51, 2-Fluoro-6-(3-methoxyanilino)purine]    120.5
6. c1coc(CNc2ncnc3nc[nH]c23)c1 [Kinetin, 6-furfurylaminopurine, reference compound]    100
7. COc1ccc(Nc2nc(F)nc3[nH]cnc23)cc1 [Compound 52]    105

Consider the additional molecule presented here.
Measured Activity (%) [10^−5 mol · l^−1 K = 100%] of COc1cccc(Nc2nc(C)nc3nc[nH]c23)c1 [Compound 118, 2-Methyl-6-(3-methoxyanilino)purine] : 105.7

---

- Tested on: cytokinin-dependent tobacco callus Nicotiana tabacum L. cv. Wisconsin 38
- EXPERIMENTAL PROTOCOL: Tobacco callus biotest (plant cell division)
- Type: cell-based
- TEST CONTEXT: at the concentration with highest activity, relative to 10^−5 M kinetin
Activity (%) [10^−5 mol · l^−1 K = 100%] overview
Numeric answer only, unit % assumed.

1) Fc1ccc(Nc2nc(Cl)nc3[nH]cnc23)cc1    112
2) Oc1cccc(Nc2nc(Cl)nc3nc[nH]c23)c1 [Compound 9, 2-Chloro-6-(3-hydroxyanilino)purine]    116.2
3) Cc1nc(Nc2cccc(F)c2)c2nc[nH]c2n1    125.3
4) Fc1nc(Nc2ccc(Cl)cc2)c2nc[nH]c2n1    130
5) Oc1cccc(Nc2nc(F)nc3[nH]cnc23)c1    104.2

Lab note: molecule `Oc1ccc(Nc2nc(F)nc3[nH]cnc23)cc1` tested on cytokinin-dependent tobacco callus Nicotiana tabacum L. cv. Wisconsin 38; recorded Activity (%) [10^−5 mol · l^−1 K = 100%] was 106

Lab note: molecule `COc1ccccc1Nc1nc(F)nc2[nH]cnc12` tested on cytokinin-dependent tobacco callus Nicotiana tabacum L. cv. Wisconsin 38; recorded Activity (%) [10^−5 mol · l^−1 K = 100%] was 117.6

Lab note: molecule `COc1ccccc1Nc1nc(Cl)nc2nc[nH]c12` tested on cytokinin-dependent tobacco callus Nicotiana tabacum L. cv. Wisconsin 38; recorded Activity (%) [10^−5 mol · l^−1 K = 100%] was 109

Lab note: molecule `Fc1cccc(Nc2nc(S)nc3[nH]cnc23)c1` tested on cytokinin-dependent tobacco callus Nicotiana tabacum L. cv. Wisconsin 38; recorded Activity (%) [10^−5 mol · l^−1 K = 100%] was 102.5

---

Activity (%) [10^−5 mol · l^−1 K = 100%] overview
- Tested on: cytokinin-dependent tobacco callus Nicotiana tabacum L. cv. Wisconsin 38
- EXPERIMENTAL PROTOCOL: Tobacco callus biotest (plant cell division)
- Assay type: cell-based
- TEST CONTEXT: at the concentration with highest activity, relative to 10^−5 M kinetin
Numeric answer only, unit % assumed.

Below: 4 molecules and their reported Activity (%) [10^−5 mol · l^−1 K = 100%].
1) Fc1nc(Nc2ccccc2)c2nc[nH]c2n1    108.1
2) Fc1ccc(Nc2nc(F)nc3[nH]cnc23)cc1    110.7
3) Clc1ccc(Nc2nc(Cl)nc3[nH]cnc23)cc1    102
4) Clc1cccc(Nc2nc(Cl)nc3nc[nH]c23)c1    110

Consider the additional molecule presented here.
Lab note: molecule `Cc1nc(Nc2cccc(Cl)c2)c2nc[nH]c2n1` tested on cytokinin-dependent tobacco callus Nicotiana tabacum L. cv. Wisconsin 38; recorded Activity (%) [10^−5 mol · l^−1 K = 100%] was 128.3

---

- System: Amaranthus caudatus cotyledon/hypocotyl explants
- EXPERIMENTAL PROTOCOL: Amaranthus bioassay (betacyanin content)
- Assay type: cell-based, Amaranthus caudatus var. atropurpurea
- TEST CONTEXT: at the concentration with highest activity, relative to 10^−5 M kinetin
RECORDED ENDPOINT: Activity (%) [10^−5 mol · l^−1 K = 100%]
Numeric answer only, unit % assumed.

Below: 5 molecules and their reported Activity (%) [10^−5 mol · l^−1 K = 100%].
1) COc1cccc(Nc2nc(Cl)nc3nc[nH]c23)c1    132.3
2) Fc1ccc(Nc2nc(Cl)nc3[nH]cnc23)cc1    104
3) Fc1nc(Nc2ccccc2)c2nc[nH]c2n1    107
4) Nc1nc(Nc2ccc(Cl)cc2)c2nc[nH]c2n1    141.7
5) c1coc(CNc2ncnc3nc[nH]c23)c1 [Kinetin, 6-furfurylaminopurine, reference compound]    100

Measured Activity (%) [10^−5 mol · l^−1 K = 100%] of `Nc1nc(Nc2cccc(O)c2)c2nc[nH]c2n1` : 119.8

---

- TGT: AHK3 (Arabidopsis thaliana, UniProt Q9C5U1)
- Sequence (Q9C5U1 whole entry): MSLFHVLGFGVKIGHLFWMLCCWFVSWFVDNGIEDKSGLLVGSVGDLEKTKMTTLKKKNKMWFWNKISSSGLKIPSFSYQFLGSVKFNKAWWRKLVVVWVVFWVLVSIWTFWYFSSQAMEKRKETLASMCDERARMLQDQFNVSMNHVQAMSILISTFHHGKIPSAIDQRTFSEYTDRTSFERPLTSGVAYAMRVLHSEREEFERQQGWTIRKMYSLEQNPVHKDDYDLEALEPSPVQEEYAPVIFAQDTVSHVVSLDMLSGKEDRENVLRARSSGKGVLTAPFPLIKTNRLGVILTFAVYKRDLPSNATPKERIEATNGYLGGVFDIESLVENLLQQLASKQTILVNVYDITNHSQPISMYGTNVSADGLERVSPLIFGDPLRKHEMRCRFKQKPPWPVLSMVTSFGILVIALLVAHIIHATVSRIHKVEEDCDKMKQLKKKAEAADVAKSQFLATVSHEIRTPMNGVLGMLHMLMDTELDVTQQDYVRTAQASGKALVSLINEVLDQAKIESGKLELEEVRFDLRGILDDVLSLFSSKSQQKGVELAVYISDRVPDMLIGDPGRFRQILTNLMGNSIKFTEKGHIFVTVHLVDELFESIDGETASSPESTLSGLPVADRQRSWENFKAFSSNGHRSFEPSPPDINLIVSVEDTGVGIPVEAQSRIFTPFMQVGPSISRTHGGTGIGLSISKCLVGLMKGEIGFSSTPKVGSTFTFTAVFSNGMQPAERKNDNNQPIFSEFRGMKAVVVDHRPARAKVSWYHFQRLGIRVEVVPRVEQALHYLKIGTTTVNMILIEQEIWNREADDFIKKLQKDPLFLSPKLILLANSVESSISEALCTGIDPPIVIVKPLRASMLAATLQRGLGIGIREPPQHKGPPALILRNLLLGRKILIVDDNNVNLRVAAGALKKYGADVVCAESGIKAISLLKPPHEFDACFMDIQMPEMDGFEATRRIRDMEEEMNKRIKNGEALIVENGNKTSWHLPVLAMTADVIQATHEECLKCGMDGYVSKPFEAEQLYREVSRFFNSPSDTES
- EXPERIMENTAL PROTOCOL: Activation of cytokinin receptors (E. coli KMI001 beta-galactosidase reporter)
- TEST CONTEXT: 28 h incubation; n.a. means no activation
pEC50 overview
Note on pEC50: it is the negative log10 of concentration, concentration in mol/L.

1) Fc1nc(Nc2cccc(Cl)c2)c2nc[nH]c2n1 [Compound 42]    4.50

Measured pEC50 of Sc1nc(Nc2ccc(Cl)cc2)c2nc[nH]c2n1 [Compound 81] : 4.99

---

- TGT: CRE1/AHK4 (Arabidopsis thaliana)
- Sequence (Q9C5U0 whole entry): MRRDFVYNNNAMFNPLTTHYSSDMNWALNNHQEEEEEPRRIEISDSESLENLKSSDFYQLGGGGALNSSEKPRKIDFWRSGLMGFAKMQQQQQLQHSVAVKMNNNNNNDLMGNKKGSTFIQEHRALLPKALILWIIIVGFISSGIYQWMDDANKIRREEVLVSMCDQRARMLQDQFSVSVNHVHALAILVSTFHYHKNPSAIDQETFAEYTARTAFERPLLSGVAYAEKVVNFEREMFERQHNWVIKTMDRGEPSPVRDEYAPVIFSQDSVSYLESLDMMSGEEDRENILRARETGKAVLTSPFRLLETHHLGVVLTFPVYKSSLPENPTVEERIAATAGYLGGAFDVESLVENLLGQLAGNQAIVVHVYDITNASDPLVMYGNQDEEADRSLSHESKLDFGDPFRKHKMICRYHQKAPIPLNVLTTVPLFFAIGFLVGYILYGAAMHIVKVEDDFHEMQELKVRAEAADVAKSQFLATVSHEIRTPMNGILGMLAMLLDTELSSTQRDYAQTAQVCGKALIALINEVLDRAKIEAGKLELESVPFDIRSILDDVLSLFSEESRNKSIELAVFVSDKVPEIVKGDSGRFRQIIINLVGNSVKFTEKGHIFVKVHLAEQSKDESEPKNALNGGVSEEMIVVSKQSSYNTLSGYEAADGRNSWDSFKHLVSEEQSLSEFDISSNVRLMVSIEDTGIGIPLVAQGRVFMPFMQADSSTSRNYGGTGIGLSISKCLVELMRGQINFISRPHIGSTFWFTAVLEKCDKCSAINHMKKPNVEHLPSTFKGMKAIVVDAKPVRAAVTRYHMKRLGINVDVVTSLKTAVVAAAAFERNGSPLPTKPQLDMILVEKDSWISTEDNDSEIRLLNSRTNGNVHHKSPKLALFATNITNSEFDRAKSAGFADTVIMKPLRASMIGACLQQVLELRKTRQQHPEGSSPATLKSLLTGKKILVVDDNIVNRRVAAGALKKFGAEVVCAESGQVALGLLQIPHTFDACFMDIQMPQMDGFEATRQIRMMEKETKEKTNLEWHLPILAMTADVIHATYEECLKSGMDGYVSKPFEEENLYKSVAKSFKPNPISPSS
- EXPERIMENTAL PROTOCOL: Activation of cytokinin receptors (E. coli KMI001 beta-galactosidase reporter)
- TEST CONTEXT: 17 h incubation; n.a. means no activation
pEC50: −log10 of the molar value.
pEC50 overview

Below: 5 compounds and their reported pEC50.
1. Nc1nc(Nc2cccc(O)c2)c2nc[nH]c2n1 [Compound 72]    < 4.30
2. Nc1nc(Nc2ccccc2O)c2[nH]cnc2n1 [Compound 71]    < 4.30
3. COc1ccccc1Nc1nc(F)nc2[nH]cnc12 [Compound 50]    < 4.30
4. CSc1nc(Nc2cccc(F)c2)c2nc[nH]c2n1 [Compound 98]    4.31
5. Oc1ccccc1Nc1nc(F)nc2[nH]cnc12 [Compound 47]    < 4.30

Consider the additional compound presented here.
Measured pEC50 of Nc1nc(Nc2ccc(O)cc2)c2nc[nH]c2n1 [Compound 73] : < 4.30
